test: Half life in Sprague-Dawley rat measured at 2 mg/kg, iv for 0.083 to 24 hrs by LC-MS/MS analysis
Assay type: ADME, organism-based
condition info: in vivo, time 0.083-24 hrs
reported property: half-life (min)
The response must be a number in min with no trailing unit.

smiles: C=CC(=O)N1CCC(c2cc3c(Oc4ccc(NC(=O)NC5CC5)c(Cl)c4)ccnc3cc2OCC)CC1
half-life (min): 14.4

Value of measured half-life for the entry `C=CC(=O)N1CCC(c2cc3c(Oc4ccc(NC(=O)NC5CC5)c(Cl)c4)ccnc3cc2OC)CC1` : 15.6

====

test: Half life in Sprague-Dawley rat measured at 10 mg/kg, po for 0.083 to 24 hrs by LC-MS/MS analysis
Type: ADME, organism-based
condition info: in vivo, time 0.083-24 hrs
Listed here are molecules together with their documented half-life.
The response must be a number in h with no trailing unit.

smiles: C=CC(=O)N1CCC(c2cc3c(Oc4ccc(NC(=O)NC5CC5)c(Cl)c4)ccnc3cc2OCC)CC1
measured result: 1.3

Value of measured half-life for the entry `C=CC(=O)N1CCC(c2cc3c(Oc4ccc(NC(=O)NC5CC5)c(Cl)c4)ccnc3cc2OC)CC1` : 2.48
